Test system: SK-MEL-5
Assay: NCI tumour cell line growth inhibition, 48 h
Active and inactive are the calls of the source. Rule as the data show it: active = GI50 up to about 1.1 µM and inactive = higher.
Readout: GI50

Solved cases (8 shown):
CSCCCNC(=O)c1csc(-c2csc(CCNC(=O)CNC(=O)CNC(=O)CNC(=O)OC(C)(C)C)n2)n1    > 100 µM (inactive)
N#Cc1c(N)c2c(c(-c3ccccc3)c1-c1ccccc1)C(=O)N(NC(=S)Nc1ccccc1)C2=O    43.1 µM (inactive)
COC(=O)CCC(NC(=O)OC(C)(C)C)C(=O)NC(Cc1ccc(NC(=O)CCCC(C)=O)cc1)C(=O)NC(CCC(=O)OC)C(=O)OC (centres undefined)    > 100 µM (inactive)
O[C@H]1[C@H](O)[C@@H](O)[C@H](O)[C@@H](O)[C@H]1O    > 1000 µM (inactive)
O=[N+]([O-])c1ccc2nc3n(c2c1)C(c1c(F)cccc1F)SC3 (centres undefined)    > 10 µM (inactive)
Clc1ccc(Cc2nc3ccccc3s2)c(Cl)c1    17.5 µM (inactive)
CC(=O)/N=C1\N/C(=C/c2cc([N+](=O)[O-])ccc2O)CN1C    > 100 µM (inactive)
COC(=O)c1c2c(cc3c1CC1(Cc4ccccc4C1)C3)CCC2    13.5 µM (inactive)

--- query ---
stdin: Tell me its GI50 given O=C(O)c1ccc(/C=N/N=C2c3ccccc3-c3ccccc32)cc1 as the entry.
stdout: 26.5 µM (inactive)
